# TEST_DESCRIPTION: Paromomycin in vivo absorption (pharmacokinetic) studies in rats
# Parameters: species or system Male rats (Sprague Dawley)
# SETTINGS: male, Sprague Dawley, rat, plasma, iv, 100 mg/kg, i.v. 100 mg/kg, Group #1, Mean of 3 rats, read-out: AUC
Structures can show the parent of a compound that is named as a salt.
ENDPOINT_NAME: AUC (ng·h/mL)

>>> readout_number("NC[C@@H]1O[C@H](O[C@H]2[C@@H](O)[C@H](O[C@@H]3[C@@H](O)[C@H](N)C[C@H](N)[C@H]3O[C@H]3O[C@H](CO)[C@@H](O)[C@H](O)[C@H]3N)O[C@@H]2CO)[C@H](N)[C@@H](O)[C@@H]1O [PAR, Paromomycin sulfate]")
78300

====

# TEST_DESCRIPTION: In vitro PAR transport across harvested intestinal segments, EasyMount Ussing System: jejunum
# Format: in vitro ADME
# SETTINGS: rat, jejunum M-to-S; 15 mg/ml PAR; Sodium Decanoate in mucosal 0.5 mg/ml (equilibrated)
Where a name gives a salt, the structure may show the parent alone.
ENDPOINT_NAME: Papp at 15 mg/ml (×10⁻⁶ cm/s)

>>> readout_number("NC[C@@H]1O[C@H](O[C@H]2[C@@H](O)[C@H](O[C@@H]3[C@@H](O)[C@H](N)C[C@H](N)[C@H]3O[C@H]3O[C@H](CO)[C@@H](O)[C@H](O)[C@H]3N)O[C@@H]2CO)[C@H](N)[C@@H](O)[C@@H]1O [PAR, Paromomycin sulfate]")
2.22
